B1: EPB41L3 (parent)
chain: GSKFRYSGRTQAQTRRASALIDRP

# Variants of: B1
# assay.notes: protein stability index of a GFP-peptide fusion (GPS, HEK-293T) (PSI 1-6); higher = more stable;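 further: lentivirally expressed fusions sorted by FACS into six bins by GFP to DsRed ratio, PSI derived from sequencing read proportions per bin multiplied by bin number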
# experimental.setup: c terminus: a fixed tail appended
reported.property: protein stability index
Numbers only.

residue_codes="GSKFRYNGRTQAQTRRASALIDRP [S7N]" value_reported=3.05
residue_codes="GSKFRYHGRTQAQTRRASALIDRP [S7H]" value_reported=2.94
residue_codes="GSKFRYSGRTQQQTRRASALIDRP [A12Q]" value_reported=3.06

Can you give me protein stability index for all of these, one by one?
1. GSKFRYSGRTQACTRRASALIDRP [Q13C]
2. GSKFRYSGRTQPQTRRASALIDRP [A12P]
3. GSKFRYSGRTQAATRRASALIDRP [Q13A]
4. GSKLRYSGRTQAQTRRASALIDRP [F4L]

OUT:
1. 2.98
2. 3.17
3. 2.84
4. 3.95

Values from the supplement of paper PMC10567573
